What viability, T/C was measured for each of the following?
- System: 328373-195-R-J1-PDC complex spheroids, viability % test/control
- Protocol Description: Anticancer human tumor 328373-195-R-J1-PDC patient-derived head and neck squamous carcinoma cell line growth inhibition [CLK]
- Condition: second compound 0.1 µM; first compound 0.1 µM; stronger effect = lower value
One number for each entry, in %.

For each of the compounds below, state viability, T/C.
1. CC(Nc1ccc2c(c1)OCCn1cc(N3C(=O)OCC3C(F)F)nc1-2)C(N)=O (centres undefined) + CNC(=O)c1ccc(Nc2nc(OC3CCCC3)c3c(-c4ccc5nc(C)oc5c4)c[nH]c3n2)c(OC)c1
2. CCCS(=O)(=O)Nc1ccc(F)c(C(=O)c2c[nH]c3ncc(-c4ccc(Cl)cc4)cc23)c1F + CN1CCN(c2cc(C(=O)Nc3cc4cc(-c5cnn(C)c5)ccc4cn3)ccn2)CC1

1. 12.9
2. 82.2

For each of the compounds below, state viability, T/C.
1. CCN1CCN(Cc2ccc(Nc3ncc(F)c(-c4cc(F)c5nc(C)n(C(C)C)c5c4)n3)nc2)CC1 + CNC(=O)c1ccc(Nc2nc(OC3CCCC3)c3c(-c4ccc5nc(C)oc5c4)c[nH]c3n2)c(OC)c1
2. COc1c(OCCCN2CCOCC2)ccc2c3n(c(=NC(=O)c4cnc(N)nc4)nc12)CCN3 + CN1CCN(c2cc(C(=O)Nc3cc4cc(-c5cnn(C)c5)ccc4cn3)ccn2)CC1

1: 13.4; 2: 46.4

====

- Test system: 328373-195-R-J1-PDC complex spheroids, viability % test/control
- Protocol Description: Anticancer human tumor 328373-195-R-J1-PDC cell line growth inhibition [CLK];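 note: spheroids exposed to the agents for 7 days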
- Condition: curve of first compound; second compound 10 µM
Endpoint Label: IC50

Consider the following illustrative entries.
| Molecule | Endpoint Label | Data Value |
| --- | --- | --- |
| C=C(F)C(=O)N1CCN(c2nc(OCC3CCCN3C)nc3c2CCN(c2cccc4cccc(Cl)c24)C3)CC1CC#N (stereo unspecified) + CN1CCN(c2cc(C(=O)Nc3cc4cc(-c5cnn(C)c5)ccc4cn3)ccn2)CC1 | IC50 | < 31.6 nM |
| Cn1ncnc1[C@H]1c2n[nH]c(=O)c3cc(F)cc(c23)N[C@@H]1c1ccc(F)cc1 + CN1CCN(c2cc(C(=O)Nc3cc4cc(-c5cnn(C)c5)ccc4cn3)ccn2)CC1 | IC50 | < 0.316 nM |
| CCCS(=O)(=O)Nc1ccc(F)c(C(=O)c2c[nH]c3ncc(-c4ccc(Cl)cc4)cc23)c1F + CNC(=O)c1ccc(Nc2nc(OC3CCCC3)c3c(-c4ccc5nc(C)oc5c4)c[nH]c3n2)c(OC)c1 | IC50 | < 31.6 nM |
| CC1COCCN1c1cc(C2(S(C)(=N)=O)CC2)nc(-c2ccnc3[nH]ccc23)n1 (stereo unspecified) + CNC(=O)c1ccc(Nc2nc(OC3CCCC3)c3c(-c4ccc5nc(C)oc5c4)c[nH]c3n2)c(OC)c1 | IC50 | < 31.6 nM |

For each of the molecules below, state IC50.
1. COc1ccc([C@@H](O)c2cc(-c3ncnc4cc(N5CCOCC5)ccc34)c(F)cc2Cl)nn1 + CN1CCN(c2cc(C(=O)Nc3cc4cc(-c5cnn(C)c5)ccc4cn3)ccn2)CC1
2. Nc1ccn(C2OC(CO)C(O)C2(F)F)c(=O)n1 (stereo unspecified) + CNC(=O)c1ccc(Nc2nc(OC3CCCC3)c3c(-c4ccc5nc(C)oc5c4)c[nH]c3n2)c(OC)c1

< 31.6 nM
< 31.6 nM

====

What pIC50 was measured for each of the following?
- Tested on: 328373-195-R-J1-PDC complex spheroids, viability % test/control
- Protocol Description: Anticancer human tumor 328373-195-R-J1-PDC cell line growth inhibition [CLK];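 note: spheroids exposed to the agents for 7 days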
- Condition: curve of first compound; second compound 10 µM
- Source text: A high-throughput screen of multi-cell type tumor spheroids was designed to identify active combinations of […] and targeted small molecules. Complex spheroids include a stromal component modeled by human endothelial cells (HUVEC) and fibroblasts modeled by human mesenchymal stem cells (MSCs). […] Compounds. […] If the clinical Cmax for an agent had not been determined, the highest concentration tested was 10 microM. […]
pIC50: −log10 of the molar value.

Consider the following illustrative entries.
| Molecule | Target Or System | pIC50 |
| --- | --- | --- |
| COc1cccc2c1C(=O)c1c(O)c3c(c(O)c1C2=O)CC(O)(C(=O)CO)CC3OC1CC(N)C(O)C(C)O1 (stereo not given) + CN1CCN(c2cc(C(=O)Nc3cc4cc(-c5cnn(C)c5)ccc4cn3)ccn2)CC1 | 328373-195-R-J1-PDC complex spheroids, viability % test/control | > 7.50 |
| CC(Nc1ccc2c(c1)OCCn1cc(N3C(=O)OCC3C(F)F)nc1-2)C(N)=O (stereo not given) + CN1CCN(c2cc(C(=O)Nc3cc4cc(-c5cnn(C)c5)ccc4cn3)ccn2)CC1 | 328373-195-R-J1-PDC complex spheroids, viability % test/control | > 7.50 |
| CCc1c2c(nc3ccc(O)cc13)-c1cc3c(c(=O)n1C2)COC(=O)[C@]3(O)CC + CNC(=O)c1ccc(Nc2nc(OC3CCCC3)c3c(-c4ccc5nc(C)oc5c4)c[nH]c3n2)c(OC)c1 | 328373-195-R-J1-PDC complex spheroids, viability % test/control | > 8.50 |

For each of the molecules below, state pIC50.
1. CC(Nc1ccc2c(c1)OCCn1cc(N3C(=O)OCC3C(F)F)nc1-2)C(N)=O (stereo not given) + CNC(=O)c1ccc(Nc2nc(OC3CCCC3)c3c(-c4ccc5nc(C)oc5c4)c[nH]c3n2)c(OC)c1
2. NC(=O)C(=Cn1cnc(-c2cc(C(F)(F)F)cc(C(F)(F)F)c2)n1)c1cncnc1 + CN1CCN(c2cc(C(=O)Nc3cc4cc(-c5cnn(C)c5)ccc4cn3)ccn2)CC1
3. Nc1ccn(C2OC(CO)C(O)C2(F)F)c(=O)n1 (stereo not given) + CN1CCN(c2cc(C(=O)Nc3cc4cc(-c5cnn(C)c5)ccc4cn3)ccn2)CC1
4. C=CC(=O)N1CCN(c2nc(=O)n(-c3c(C)ccnc3C(C)C)c3nc(-c4c(O)cccc4F)c(F)cc23)C(C)C1 (stereo not given) + CN1CCN(c2cc(C(=O)Nc3cc4cc(-c5cnn(C)c5)ccc4cn3)ccn2)CC1

["> 7.50", "> 8.02", "> 7.50", "> 7.50"]

====

- System: 328373-195-R-J1-PDC complex spheroids, viability % test/control
- Protocol Description: Anticancer human tumor 328373-195-R-J1-PDC cell line growth inhibition [CLK];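 note: spheroids exposed to the agents for 7 days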
- Condition: curve of first compound; second compound 3.16 µM
pIC50: −log10 of the molar value.
What pIC50 was measured for each of the following?

| Compound | Data Value |
| --- | --- |
| O=c1[nH]cc(F)c(=O)[nH]1 + CN1CCN(c2cc(C(=O)Nc3cc4cc(-c5cnn(C)c5)ccc4cn3)ccn2)CC1 | > 7.50 |
| CC(Nc1ccc2c(c1)OCCn1cc(N3C(=O)OCC3C(F)F)nc1-2)C(N)=O (configuration not stated) + CNC(=O)c1ccc(Nc2nc(OC3CCCC3)c3c(-c4ccc5nc(C)oc5c4)c[nH]c3n2)c(OC)c1 | > 7.50 |

For each of the compounds below, state pIC50.
1. COc1ccc([C@@H](O)c2cc(-c3ncnc4cc(N5CCOCC5)ccc34)c(F)cc2Cl)nn1 + CNC(=O)c1ccc(Nc2nc(OC3CCCC3)c3c(-c4ccc5nc(C)oc5c4)c[nH]c3n2)c(OC)c1
2. O=c1[nH]cc(F)c(=O)[nH]1 + CNC(=O)c1ccc(Nc2nc(OC3CCCC3)c3c(-c4ccc5nc(C)oc5c4)c[nH]c3n2)c(OC)c1
3. CC(C)CC(NC(=O)C(Cc1ccccc1)NC(=O)c1cnccn1)B(O)O (configuration not stated) + CN1CCN(c2cc(C(=O)Nc3cc4cc(-c5cnn(C)c5)ccc4cn3)ccn2)CC1

1: > 7.50; 2: > 7.50; 3: > 9.02

For each of the compounds below, state pIC50.
1. CC1COCCN1c1cc(C2(S(C)(=N)=O)CC2)nc(-c2ccnc3[nH]ccc23)n1 (configuration not stated) + CNC(=O)c1ccc(Nc2nc(OC3CCCC3)c3c(-c4ccc5nc(C)oc5c4)c[nH]c3n2)c(OC)c1
2. CCN1CCN(Cc2ccc(Nc3ncc(F)c(-c4cc(F)c5nc(C)n(C(C)C)c5c4)n3)nc2)CC1 + CNC(=O)c1ccc(Nc2nc(OC3CCCC3)c3c(-c4ccc5nc(C)oc5c4)c[nH]c3n2)c(OC)c1
3. C=CC(=O)N1CCN(c2nc(=O)n(-c3c(C)ccnc3C(C)C)c3nc(-c4c(O)cccc4F)c(F)cc23)C(C)C1 (configuration not stated) + CNC(=O)c1ccc(Nc2nc(OC3CCCC3)c3c(-c4ccc5nc(C)oc5c4)c[nH]c3n2)c(OC)c1
4. Nc1ccccc1NC(=O)c1ccc(CNC(=O)OCc2cccnc2)cc1 + CNC(=O)c1ccc(Nc2nc(OC3CCCC3)c3c(-c4ccc5nc(C)oc5c4)c[nH]c3n2)c(OC)c1
5. C=CC(=O)Nc1cc(Nc2nccc(-c3cn(C)c4ccccc34)n2)c(OC)cc1N(C)CCN(C)C + CNC(=O)c1ccc(Nc2nc(OC3CCCC3)c3c(-c4ccc5nc(C)oc5c4)c[nH]c3n2)c(OC)c1
6. Nc1ccn(C2OC(CO)C(O)C2(F)F)c(=O)n1 (configuration not stated) + CNC(=O)c1ccc(Nc2nc(OC3CCCC3)c3c(-c4ccc5nc(C)oc5c4)c[nH]c3n2)c(OC)c1
7. COc1cccc2c1C(=O)c1c(O)c3c(c(O)c1C2=O)CC(O)(C(=O)CO)CC3OC1CC(N)C(O)C(C)O1 (configuration not stated) + CN1CCN(c2cc(C(=O)Nc3cc4cc(-c5cnn(C)c5)ccc4cn3)ccn2)CC1
8. COc1ccc([C@@H](O)c2cc(-c3ncnc4cc(N5CCOCC5)ccc34)c(F)cc2Cl)nn1 + CN1CCN(c2cc(C(=O)Nc3cc4cc(-c5cnn(C)c5)ccc4cn3)ccn2)CC1

1: > 7.50; 2: > 8.50; 3: > 7.50; 4: > 7.50; 5: > 9.02; 6: > 7.50; 7: > 7.50; 8: > 7.50

For each of the compounds below, state pIC50.
1. CCCS(=O)(=O)Nc1ccc(F)c(C(=O)c2c[nH]c3ncc(-c4ccc(Cl)cc4)cc23)c1F + CN1CCN(c2cc(C(=O)Nc3cc4cc(-c5cnn(C)c5)ccc4cn3)ccn2)CC1
2. CC(CO)NC(=O)c1cc(-c2ccc(Cl)cc2)nn(-c2cnn(C)c2)c1=O (configuration not stated) + CNC(=O)c1ccc(Nc2nc(OC3CCCC3)c3c(-c4ccc5nc(C)oc5c4)c[nH]c3n2)c(OC)c1
3. Nc1ccn(C2OC(CO)C(O)C2(F)F)c(=O)n1 (configuration not stated) + CN1CCN(c2cc(C(=O)Nc3cc4cc(-c5cnn(C)c5)ccc4cn3)ccn2)CC1
4. C=C(F)C(=O)N1CCN(c2nc(OCC3CCCN3C)nc3c2CCN(c2cccc4cccc(Cl)c24)C3)CC1CC#N (configuration not stated) + CNC(=O)c1ccc(Nc2nc(OC3CCCC3)c3c(-c4ccc5nc(C)oc5c4)c[nH]c3n2)c(OC)c1

1. > 7.50
2. > 7.50
3. > 7.50
4. > 7.50
